- test_target: Nonstructural protein 3 (Zika virus) (UniProt A0A024AXB9)
- Sequence (A0A024AXB9 as listed by the source): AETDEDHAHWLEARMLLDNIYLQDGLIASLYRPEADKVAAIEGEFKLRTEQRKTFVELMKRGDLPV
- measurement_setup: PRVABC59, Concentration 15.0 uM, Number of replicates 1.0
- Description: Functional biochemical assay to identify treatments for viral infectious disease that targets Zika NS2B-NS3 protease. Utilizing a direct enzyme activity measurement method, reading the fluorescence intensity is used to characterize the relative potency of inhibitors as % inhibition.
Screen size: about 2,700 compounds; about 160 (5.9%) showed an effect of 50% or more. The sample holds strong results, similar compounds and a random draw of the others, so the mix is not that of the screen.
assay_readout: inhibition (%)
Please state the figure in %; there is no need to write the unit.

Record summary for O=C(NCCc1nc(-c2ccc(Cl)cc2)no1)c1cc(Cl)ccc1NS(=O)(=O)c1ccc(Oc2ccccc2Cl)cc1 : reported inhibition = 20.2

Record summary for O=C(Nc1ccccc1Sc1ccccc1)c1cc(Cl)ccc1NS(=O)(=O)c1ccc(Oc2ccccc2Cl)cc1 : reported inhibition = 25.8

Record summary for COc1ccc(CNC(=O)c2cc(Cl)ccc2NS(=O)(=O)c2ccc(Oc3ccccc3Cl)cc2)cc1F : reported inhibition = 26.5

Record summary for Cc1ccc2ccccc2c1NC(=O)c1cc(Cl)ccc1NS(=O)(=O)c1ccc(Oc2ccccc2Cl)cc1 : reported inhibition = 26.4

Record summary for O=C(NCc1nc(-c2ccccn2)no1)c1cc(Cl)ccc1NS(=O)(=O)c1ccc(Oc2ccccc2Cl)cc1 : reported inhibition = 54

Record summary for O=C(c1cc(Cl)ccc1NS(=O)(=O)c1ccc(Oc2ccccc2Cl)cc1)N1CCC(n2c(=O)[nH]c3ccccc32)CC1 : reported inhibition = 15.6

Record summary for COc1ccc(NC(C)=O)cc1NC(=O)c1cc(Cl)ccc1NS(=O)(=O)c1ccc(Oc2ccccc2Cl)cc1 : reported inhibition = 55

Record summary for O=C(Nc1ccc(OC(F)F)cc1)c1cc(Cl)ccc1NS(=O)(=O)c1ccc(Oc2ccccc2Cl)cc1 : reported inhibition = 57.7

###

Task for the reader: assign each of the following molecules its reported inhibition.
- test_target: Nonstructural protein 3 (Zika virus)
- measurement_setup: PRVABC59, Concentration 15.0 uM, Number of replicates 1.0
In all, about 2,700 compounds went through this assay and about 160 (5.9%) showed an effect of 50% or more. The full list was thinned out, with strong results kept by preference.
Please state the figure in %; there is no need to write the unit.

Record summary for O=C(c1cc(Cl)ccc1NS(=O)(=O)c1ccc(Oc2ccccc2Cl)cc1)N1CCN(c2ccc(Br)cn2)CC1 : reported inhibition = 18.6

Record summary for O=C(Nc1cc(Cl)ccc1Br)c1cc(Cl)ccc1NS(=O)(=O)c1ccc(Oc2ccccc2Cl)cc1 : reported inhibition = 24.1

Record summary for O=C(Nc1ccccc1)c1cc(Cl)ccc1NS(=O)(=O)c1ccc(Oc2ccccc2Cl)cc1 : reported inhibition = 54.2

Record summary for O=C(Nc1ccc2ccccc2c1O)c1cc(Cl)ccc1NS(=O)(=O)c1ccc(Oc2ccccc2Cl)cc1 : reported inhibition = 14

###

- test_target: Nonstructural protein 3 (Zika virus)
- measurement_setup: PRVABC59, Concentration 15.0 uM, Number of replicates 1.0
Screen size: about 2,700 compounds; about 160 (5.9%) showed an effect of 50% or more. The sample holds strong results, similar compounds and a random draw of the others, so the mix is not that of the screen.
Task for the reader: assign each of the following compounds its reported inhibition.
Please state the figure in %; there is no need to write the unit.

Record summary for O=C(c1cc(Cl)ccc1NS(=O)(=O)c1ccc(Oc2ccccc2Cl)cc1)N1CCCN(c2ccc(C(F)(F)F)cn2)CC1 : reported inhibition = 30

Record summary for C[C@H](NC(=O)c1cc(Cl)ccc1NS(=O)(=O)c1ccc(Oc2ccccc2Cl)cc1)c1cccc(C(F)(F)F)c1 : reported inhibition = 39.3

Record summary for O=C(Nc1ccc2scnc2c1)c1cc(Cl)ccc1NS(=O)(=O)c1ccc(Oc2ccccc2Cl)cc1 : reported inhibition = 71.2

Record summary for C[C@H](NC(=O)c1cc(Cl)ccc1NS(=O)(=O)c1ccc(Oc2ccccc2Cl)cc1)c1ccccc1C(F)(F)F : reported inhibition = 42.7

Record summary for CC(C)(C)N(C[C@H](O)c1ccc(O)c(CO)c1)C(=O)c1cc(Cl)ccc1NS(=O)(=O)c1ccc(Oc2ccccc2Cl)cc1 : reported inhibition = 14.6

Record summary for O=C(Nc1ncccc1C(F)(F)F)c1cc(Cl)ccc1NS(=O)(=O)c1ccc(Oc2ccccc2Cl)cc1 : reported inhibition = 25.1

Record summary for CN(Cc1cccc2ccccc12)C(=O)c1cc(Cl)ccc1NS(=O)(=O)c1ccc(Oc2ccccc2Cl)cc1 : reported inhibition = 19.1

Record summary for COc1cccc(CCNC(=O)c2cc(Cl)ccc2NS(=O)(=O)c2ccc(Oc3ccccc3Cl)cc2)c1 : reported inhibition = 27.6

Record summary for CC(C)(C)[C@H](NC(=O)c1cc(Cl)ccc1NS(=O)(=O)c1ccc(Oc2ccccc2Cl)cc1)c1ccccc1 : reported inhibition = 57.8

Record summary for CC(CNC(=O)c1cc(Cl)ccc1NS(=O)(=O)c1ccc(Oc2ccccc2Cl)cc1)(c1ccccc1)c1ccccc1 : reported inhibition = 31.7

Record summary for O=C(Nc1ccc(N2CCOCC2=O)cc1)c1cc(Cl)ccc1NS(=O)(=O)c1ccc(Oc2ccccc2Cl)cc1 : reported inhibition = 48.5

Record summary for O=C(Nc1nc2[nH]cnc2c(=O)[nH]1)c1cc(Cl)ccc1NS(=O)(=O)c1ccc(Oc2ccccc2Cl)cc1 : reported inhibition = 21.9

Record summary for O=C(Nc1ccc(I)cc1F)c1cc(Cl)ccc1NS(=O)(=O)c1ccc(Oc2ccccc2Cl)cc1 : reported inhibition = 67.5

Record summary for O=C(c1cc(Cl)ccc1NS(=O)(=O)c1ccc(Oc2ccccc2Cl)cc1)N1CCN(CCc2ccncc2)CC1 : reported inhibition = 6.55

Record summary for C[C@@H](CC(C)(C)c1ccccc1)NC(=O)c1cc(Cl)ccc1NS(=O)(=O)c1ccc(Oc2ccccc2Cl)cc1 : reported inhibition = 18.2

Record summary for CS(=O)(=O)c1ccc(O)c(NC(=O)c2cc(Cl)ccc2NS(=O)(=O)c2ccc(Oc3ccccc3Cl)cc2)c1 : reported inhibition = 32.3

Source of measurements: ChEMBL document CHEMBL5606458
